Origin of measurements: paper PMC4333415

# target.system: T1, NagR (YvoA) (Bacillus subtilis, UniProt O34817 1-243)
# T1 sequence: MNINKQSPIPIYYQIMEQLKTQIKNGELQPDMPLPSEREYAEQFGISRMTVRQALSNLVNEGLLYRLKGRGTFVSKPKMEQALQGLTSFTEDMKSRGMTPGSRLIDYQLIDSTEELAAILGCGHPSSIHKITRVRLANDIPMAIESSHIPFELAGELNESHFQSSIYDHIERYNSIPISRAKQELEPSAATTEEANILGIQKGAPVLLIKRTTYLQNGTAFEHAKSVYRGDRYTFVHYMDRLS
# assay: SPR; kinetic 1:1 fit; SPR: HBS-EP pH 7.4, 25 C, biotinylated DNA on SA chip; DNA for EMSA/SEC annealed in 20 mM Tris-HCl pH 7.5, 150 mM NaCl; crystal 4WWC: 0.1 M Bis-Tris pH 6.5, 25% PEG 3500, 292 K
# measurement.parameters: protein: recombinant; tags: pET15b template; chain copies: 2; label: 5'-biotin on strand 1; blunt
recorded.endpoint: Kd (nM)
Numeric answer only, unit nM assumed.

stdin: I am curious: what Kd value has been reported for 26mer native nagAB dsDNA (dsDNA) DNA 1: GCTCAGCTGGTCTAGATCACTAGTCT DNA 2: AGACTAGTGATCTAGACCAGCTGAGC ?
stdout: 0.0192

stdin: Kd for 26mer palindromic dsDNA (dsDNA) DNA 1: GCTCAGGTGGTCTAGACCACTAGTCT DNA 2: AGACTAGTGGTCTAGACCACCTGAGC ?
stdout: 0.0279
